# target.desc: F Xa (bovine) (Bos taurus)
# Construct: purchased Diagnostic Reagents Ltd, Thame, GB
# Sequence (P00743 234-492 limits assumed): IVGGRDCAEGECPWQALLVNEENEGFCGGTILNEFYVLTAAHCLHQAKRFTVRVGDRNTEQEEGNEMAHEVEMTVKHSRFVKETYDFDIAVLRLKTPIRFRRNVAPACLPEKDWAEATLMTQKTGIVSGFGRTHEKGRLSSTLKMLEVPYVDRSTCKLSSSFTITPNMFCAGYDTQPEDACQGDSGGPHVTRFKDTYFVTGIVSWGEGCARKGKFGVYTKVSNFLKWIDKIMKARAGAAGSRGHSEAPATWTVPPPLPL
# Sequence (P00743 41-180 partner limits assumed): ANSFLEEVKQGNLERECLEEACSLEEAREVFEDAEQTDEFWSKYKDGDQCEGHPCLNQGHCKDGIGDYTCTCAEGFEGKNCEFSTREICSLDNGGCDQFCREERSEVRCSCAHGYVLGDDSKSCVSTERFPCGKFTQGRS
# test.details: Inhibition of F Xa, Ki by the method of Dixon, chromogenic substrate Moc-D-Nle-Gly-Arg-pNA
# Format: biochemical
# test.settings: Example 4; inhibition of factor Xa by inhibitors of formula I
Structures can show the parent of a compound that is named as a salt.
Ki vs 70 nM: less than gives yes (1); not less than gives no (0).

{"columns": ["compound", "label.class"],
 "data": [
  ["CC(C)(C)OC[C@@H](NS(=O)(=O)Cc1ccc(Cl)c(Cl)c1)C(=O)NCC(=O)NCc1ccc(C(=N)N)cc1", "no (0)"],
  ["CC(C)(C)OC[C@@H](NS(=O)(=O)Cc1ccc(CC(=O)O)cc1)C(=O)NCC(=O)NCc1ccc(C(=N)N)cc1", "no (0)"],
  ["N=C(N)NCCC[C@@H](NS(=O)(=O)CC1CCCCC1)C(=O)NCC(=O)NCc1ccc(C(=N)N)cc1", "yes (1)"],
  ["N=C(N)c1ccc(CNC(=O)C(CCCCN)NC(=O)C(CC2CCCCC2)NS(=O)(=O)Cc2ccccc2)cc1 (stereo not shown)", "yes (1)"],
  ["CC(C)(C)OC[C@@H](NS(=O)(=O)Cc1ccccc1C(=O)O)C(=O)NCC(=O)NCc1ccc(C(=N)N)cc1", "no (0)"],
  ["CC(C)(C)OC[C@@H](NS(=O)(=O)Cc1ccc(C(=O)O)cc1)C(=O)NCC(=O)NCc1ccc(C(=N)N)cc1", "yes (1)"],
  ["N=C(N)c1ccc(CNC(=O)CNC(=O)[C@@H](Cc2cccc(C(=N)N)c2)NS(=O)(=O)Cc2ccccc2)cc1 [No. 1, TFA]", "yes (1)"],
  ["CC(C)(C)OC[C@@H](NS(=O)(=O)CCc1cccc2ccccc12)C(=O)NCC(=O)NCc1ccc(C(=N)N)cc1", "no (0)"],
  ["CC(C)(C)OC[C@@H](NS(=O)(=O)Cc1ccccc1)C(=O)N[C@@H](CO)C(=O)NCc1ccc(C(=N)N)cc1 [No. 11]", "yes (1)"],
  ["N=C(N)c1ccc(CNC(=O)CNC(=O)[C@@H](Cc2c[nH]cn2)NS(=O)(=O)Cc2ccccc2)cc1", "no (0)"],
  ["CC(C)(C)OC[C@@H](NS(=O)(=O)Cc1ccc(Cl)cc1)C(=O)NCC(=O)NCc1ccc(C(=N)N)cc1", "yes (1)"],
  ["CC(C)(C)OC[C@@H](NS(=O)(=O)Cc1ccc(C#N)cc1)C(=O)NCC(=O)NCc1ccc(C(=N)N)cc1", "yes (1)"],
  ["CC(C)(C)OC[C@@H](NS(=O)(=O)Cc1ccccc1)C(=O)N[C@@H](CO)C(=O)NCc1ccc(C(=N)N)cc1 [compound 11]", "yes (1)"],
  ["CC(C)(C)OC[C@@H](NS(=O)(=O)Cc1ccccc1)C(=O)NCC(=O)NCc1ccc(C(N)=NO)cc1", "no (0)"],
  ["CC(C)(C)OC[C@@H](NS(=O)(=O)Cc1ccc(F)cc1)C(=O)NCC(=O)NCc1ccc(C(=N)N)cc1", "yes (1)"],
  ["COC(=O)c1ccc(CS(=O)(=O)N[C@H](COC(C)(C)C)C(=O)NCC(=O)NCc2ccc(C(=N)N)cc2)cc1", "no (0)"],
  ["CC(C)(C)OC[C@@H](NS(=O)(=O)Cc1ccccc1)C(=O)N[C@@H](CCC(=O)O)C(=O)NCc1ccc(C(=N)N)cc1", "yes (1)"],
  ["CC(C)(C)OC[C@@H](NS(=O)(=O)Cc1ccc2ccccc2c1)C(=O)NCC(=O)NCc1ccc(C(=N)N)cc1", "no (0)"],
  ["CC(C)(C)OCC(NS(=O)(=O)Cc1ccc(C(=O)O)cc1)C(=O)NC(CO)C(=O)NCc1ccc(C(=N)N)cc1 (stereo not shown)", "no (0)"],
  ["N=C(N)c1ccc(CNC(=O)CNC(=O)[C@@H](Cc2ccc(C(=N)N)cc2)NS(=O)(=O)Cc2ccccc2)cc1", "no (0)"],
  ["CC(C)(C)OC[C@@H](NS(=O)(=O)Cc1cccc(C(=O)O)c1)C(=O)NCC(=O)NCc1ccc(C(=N)N)cc1 [No. 19]", "yes (1)"],
  ["CC(C)(C)OC[C@@H](NS(=O)(=O)CCc1ccccc1)C(=O)NCC(=O)NCc1ccc(C(=N)N)cc1", "no (0)"],
  ["CC(C)(C)OC[C@@H](NS(=O)(=O)Cc1cccc(C(=O)O)c1)C(=O)NCC(=O)NCc1ccc(C(=N)N)cc1 [compound 19]", "no (0)"],
  ["CC(C)(C)OC[C@@H](NS(=O)(=O)Cc1ccncc1)C(=O)NCC(=O)NCc1ccc(C(=N)N)cc1", "no (0)"]
]}
